IC50 listing for selected compounds.
# Target or system: APOL1 G1 Protein (Homo sapiens, UniProt O14791, I384M/S342G)
# Sequence (O14791 28-398 S342G/I384M): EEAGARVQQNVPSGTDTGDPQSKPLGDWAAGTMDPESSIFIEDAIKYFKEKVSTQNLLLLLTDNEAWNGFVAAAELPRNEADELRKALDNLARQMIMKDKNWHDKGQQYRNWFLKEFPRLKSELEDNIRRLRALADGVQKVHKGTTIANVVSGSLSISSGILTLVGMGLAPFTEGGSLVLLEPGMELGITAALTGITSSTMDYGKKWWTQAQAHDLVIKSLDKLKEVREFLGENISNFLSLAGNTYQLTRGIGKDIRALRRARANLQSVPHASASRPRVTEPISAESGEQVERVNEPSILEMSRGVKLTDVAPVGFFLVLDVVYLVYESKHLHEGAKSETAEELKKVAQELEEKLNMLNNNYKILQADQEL
# Protocol notes: Trypanosoma brucei brucei Lysis Assay Using APOL1 Recombinant Protein (AlamarBlue viability)
# Reported conditions: read-out: Trypanosomal Assay (IC50)

These recorded examples may help you get a feel for the data.
> print(dat)
                                   compound                          target.or.system  measurement
1  O=C(CCc1c(-c2ccc(F)cc2)[nH]c2ccc(F)cc12)NC(CO)CF (stereo not shown)  APOL1 G1 Protein (Homo sapiens, UniProt O14791, I384M/S342G)     < 250 nM
2  COCCNC(=O)CCc1c(-c2ccc(F)cc2)[nH]c2c(F)cc(F)cc12  APOL1 G1 Protein (Homo sapiens, UniProt O14791, I384M/S342G)    > 1000 nM
3  O=C(CCc1c(-c2ccc(F)cc2)[nH]c2ccc(F)cc12)NC1CC1(F)F (stereo not shown)  APOL1 G1 Protein (Homo sapiens, UniProt O14791, I384M/S342G)    > 1000 nM

Next:
What measured IC50 goes with `Cc1csc(NC(=O)CCc2c(-c3ccc(F)cc3)[nH]c3c(F)cc(F)cc23)n1` ?
> 1000 nM

Origin of values: patent US20230014907A1
